FYI, the data here is from PubChem BioAssay AID1963852.

tested on: 282377-053-R-J1-PDC complex spheroid viability; assay: Anticancer human tumor 282377-053-R-J1-PDC patient-derived colon adenocarcinoma cell line growth inhibition [POLQ]; settings: curve of first compound; second compound 0.1 µM
pIC50: −log10 of the molar value.
endpoint: pIC50

O=c1[nH]cc(F)c(=O)[nH]1 + Nc1ccc(C#CCN(C(=O)Cc2ncc(C(F)(F)F)cc2C(F)(F)F)c2ccc(F)cc2)nn1 | < 5.00

Turning now to a further record.
Query: // fetch pIC50 given entry CC[C@@]1(O)C(=O)OCc2c1cc1n(c2=O)Cc2cc3c(CN(C)C)c(O)ccc3nc2-1 + Cc1cccc(N(C)C(=O)C2C(O)CCN2c2nc(C)cc(C(F)(F)F)c2C#N)c1
Reply: < 7.00

----------
tested on: 282377-053-R-J1-PDC complex spheroid viability; experiment: Anticancer human tumor 282377-053-R-J1-PDC cell line growth inhibition [POLQ]; conditions: second compound 0.316 µM; first compound 0.01 µM; stronger effect = lower value;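 note: spheroids exposed to compounds for seven days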;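 for viability, T/C: 100% = DMSO vehicle control viability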
Listed compounds paired with reported viability, T/C
// note: answer is a bare numeric in %

COc1cccc(OCCCN)c1-c1cc(Nc2cnc(C#N)cn2)n[nH]1 + COC1C(OC(N)=O)C(O)C(Oc2ccc3c(O)c(NC(=O)c4ccc(O)c(CC=C(C)C)c4)c(=O)oc3c2C)OC1(C)C | 83.9
C=CCn1c(=O)c2cnc(Nc3ccc(N4CCN(C)CC4)cc3)nc2n1-c1cccc(C(C)(C)O)n1 + COC1C(OC(N)=O)C(O)C(Oc2ccc3c(O)c(NC(=O)c4ccc(O)c(CC=C(C)C)c4)c(=O)oc3c2C)OC1(C)C | 109
CC[C@@]1(O)C(=O)OCc2c1cc1n(c2=O)Cc2cc3c(CN(C)C)c(O)ccc3nc2-1 + COC1C(OC(N)=O)C(O)C(Oc2ccc3c(O)c(NC(=O)c4ccc(O)c(CC=C(C)C)c4)c(=O)oc3c2C)OC1(C)C | 100
CCc1c2c(nc3ccc(O)cc13)-c1cc3c(c(=O)n1C2)COC(=O)[C@]3(O)CC + Nc1ccc(C#CCN(C(=O)Cc2ncc(C(F)(F)F)cc2C(F)(F)F)c2ccc(F)cc2)nn1 | 92.3
Cn1ncnc1[C@H]1c2n[nH]c(=O)c3cc(F)cc(c23)N[C@@H]1c1ccc(F)cc1 + Nc1ccc(C#CCN(C(=O)Cc2ncc(C(F)(F)F)cc2C(F)(F)F)c2ccc(F)cc2)nn1 | 93.8

Query: // fetch viability, T/C given entry Cn1ncnc1[C@H]1c2n[nH]c(=O)c3cc(F)cc(c23)N[C@@H]1c1ccc(F)cc1 + Cc1cccc(N(C)C(=O)C2C(O)CCN2c2nc(C)cc(C(F)(F)F)c2C#N)c1
Reply: 93.5

Query: // fetch viability, T/C given entry COc1cccc(OCCCN)c1-c1cc(Nc2cnc(C#N)cn2)n[nH]1 + Cc1cccc(N(C)C(=O)C2C(O)CCN2c2nc(C)cc(C(F)(F)F)c2C#N)c1
Reply: 88.5

Query: // fetch viability, T/C given entry CC[C@@]1(O)C(=O)OCc2c1cc1n(c2=O)Cc2cc3c(CN(C)C)c(O)ccc3nc2-1 + Cc1cccc(N(C)C(=O)C2C(O)CCN2c2nc(C)cc(C(F)(F)F)c2C#N)c1
Reply: 105

Query: // fetch viability, T/C given entry COc1cccc(OCCCN)c1-c1cc(Nc2cnc(C#N)cn2)n[nH]1 + Nc1ccc(C#CCN(C(=O)Cc2ncc(C(F)(F)F)cc2C(F)(F)F)c2ccc(F)cc2)nn1
Reply: 88.3

Query: // fetch viability, T/C given entry Cn1ncnc1[C@H]1c2n[nH]c(=O)c3cc(F)cc(c23)N[C@@H]1c1ccc(F)cc1 + COC1C(OC(N)=O)C(O)C(Oc2ccc3c(O)c(NC(=O)c4ccc(O)c(CC=C(C)C)c4)c(=O)oc3c2C)OC1(C)C
Reply: 111

Query: // fetch viability, T/C given entry CC[C@@]1(O)C(=O)OCc2c1cc1n(c2=O)Cc2cc3c(CN(C)C)c(O)ccc3nc2-1 + Nc1ccc(C#CCN(C(=O)Cc2ncc(C(F)(F)F)cc2C(F)(F)F)c2ccc(F)cc2)nn1
Reply: 79.3

Query: // fetch viability, T/C given entry C=CCn1c(=O)c2cnc(Nc3ccc(N4CCN(C)CC4)cc3)nc2n1-c1cccc(C(C)(C)O)n1 + Cc1cccc(N(C)C(=O)C2C(O)CCN2c2nc(C)cc(C(F)(F)F)c2C#N)c1
Reply: 103

Query: // fetch viability, T/C given entry CCc1c2c(nc3ccc(O)cc13)-c1cc3c(c(=O)n1C2)COC(=O)[C@]3(O)CC + COC1C(OC(N)=O)C(O)C(Oc2ccc3c(O)c(NC(=O)c4ccc(O)c(CC=C(C)C)c4)c(=O)oc3c2C)OC1(C)C
Reply: 81.2

Query: // fetch viability, T/C given entry C=CCn1c(=O)c2cnc(Nc3ccc(N4CCN(C)CC4)cc3)nc2n1-c1cccc(C(C)(C)O)n1 + Nc1ccc(C#CCN(C(=O)Cc2ncc(C(F)(F)F)cc2C(F)(F)F)c2ccc(F)cc2)nn1
Reply: 96.9

Query: // fetch viability, T/C given entry CCc1c2c(nc3ccc(O)cc13)-c1cc3c(c(=O)n1C2)COC(=O)[C@]3(O)CC + Cc1cccc(N(C)C(=O)C2C(O)CCN2c2nc(C)cc(C(F)(F)F)c2C#N)c1
Reply: 74.9

----------
system: 282377-053-R-J1-PDC complex spheroid viability; assay: Anticancer human tumor 282377-053-R-J1-PDC cell line growth inhibition [POLQ]; conditions: second compound 10 µM; first compound 0.01 µM; stronger effect = lower value;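 note: spheroids exposed to compounds for seven days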;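 for viability, T/C: 100% = DMSO vehicle control viability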
Response field label takes condition met when viability, T/C is strictly below 90% and condition not met in all other cases.

Solved cases (3 shown):
CC[C@@]1(O)C(=O)OCc2c1cc1n(c2=O)Cc2cc3c(CN(C)C)c(O)ccc3nc2-1 + Cc1cccc(N(C)C(=O)C2C(O)CCN2c2nc(C)cc(C(F)(F)F)c2C#N)c1 | condition met
CCc1c2c(nc3ccc(O)cc13)-c1cc3c(c(=O)n1C2)COC(=O)[C@]3(O)CC + Nc1ccc(C#CCN(C(=O)Cc2ncc(C(F)(F)F)cc2C(F)(F)F)c2ccc(F)cc2)nn1 | condition not met
COc1cccc(OCCCN)c1-c1cc(Nc2cnc(C#N)cn2)n[nH]1 + COC1C(OC(N)=O)C(O)C(Oc2ccc3c(O)c(NC(=O)c4ccc(O)c(CC=C(C)C)c4)c(=O)oc3c2C)OC1(C)C | condition met

# evaluate next
Query: Hello, is viability, T/C of the following compound strictly smaller than 90%? Cn1ncnc1[C@H]1c2n[nH]c(=O)c3cc(F)cc(c23)N[C@@H]1c1ccc(F)cc1 + Nc1ccc(C#CCN(C(=O)Cc2ncc(C(F)(F)F)cc2C(F)(F)F)c2ccc(F)cc2)nn1
Reply: condition not met

----------
Listed compounds paired with reported IC50
tested on: 282377-053-R-J1-PDC complex spheroid viability; assay: Anticancer human tumor 282377-053-R-J1-PDC cell line growth inhibition [POLQ]; conditions: curve of first compound; second compound 0.0316 µM;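 note: spheroids exposed to compounds for seven days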

Answered examples (2):
COc1cccc2c1C(=O)c1c(O)c3c(c(O)c1C2=O)CC(O)(C(=O)CO)CC3OC1CC(N)C(O)C(C)O1 (stereo not drawn) + Cc1cccc(N(C)C(=O)C2C(O)CCN2c2nc(C)cc(C(F)(F)F)c2C#N)c1 | 0.476 µM
O=C(Nc1ccc(O)c(NS(=O)(=O)c2ccc(F)cc2)c1)c1ccc(-c2ccccc2)cc1 + Cc1cccc(N(C)C(=O)C2C(O)CCN2c2nc(C)cc(C(F)(F)F)c2C#N)c1 | > 10 µM

Turning now to a further record.
Query: // fetch IC50 given entry CCCS(=O)(=O)Nc1ccc(F)c(C(=O)c2c[nH]c3ncc(-c4ccc(Cl)cc4)cc23)c1F + Cc1cccc(N(C)C(=O)C2C(O)CCN2c2nc(C)cc(C(F)(F)F)c2C#N)c1
Reply: > 10 µM

----------
system: 282377-053-R-J1-PDC complex spheroid viability; assay: Anticancer human tumor 282377-053-R-J1-PDC cell line growth inhibition [POLQ]; details: second compound 0.1 µM; first compound 3.16 µM; stronger effect = lower value;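 note: spheroids exposed to compounds for seven days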;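 for viability, T/C: 100% = DMSO vehicle control viability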
Listed compounds paired with reported viability, T/C
// note: answer is a bare numeric in %

Answered examples (5):
C#Cc1c(F)ccc2cc(O)cc(-c3ncc4c(N5CC6CCC(C5)N6)nc(OCC56CCCN5CC(F)C6)nc4c3F)c12 (configuration not stated) + Nc1ccc(C#CCN(C(=O)Cc2ncc(C(F)(F)F)cc2C(F)(F)F)c2ccc(F)cc2)nn1 | 99.5
O=C(Nc1ccc(O)c(NS(=O)(=O)c2ccc(F)cc2)c1)c1ccc(-c2ccccc2)cc1 + COC1C(OC(N)=O)C(O)C(Oc2ccc3c(O)c(NC(=O)c4ccc(O)c(CC=C(C)C)c4)c(=O)oc3c2C)OC1(C)C | 127
COc1cc2cc(C(=O)CCC(=O)O)sc2cc1OC + Cc1cccc(N(C)C(=O)C2C(O)CCN2c2nc(C)cc(C(F)(F)F)c2C#N)c1 | 115
O=C(Nc1ccc(O)c(NS(=O)(=O)c2ccc(F)cc2)c1)c1ccc(-c2ccccc2)cc1 + Nc1ccc(C#CCN(C(=O)Cc2ncc(C(F)(F)F)cc2C(F)(F)F)c2ccc(F)cc2)nn1 | 104
CC1COCCN1c1cc(-c2ccnn2C)c2ccnc(-c3ccn[nH]3)c2n1 (configuration not stated) + Cc1cccc(N(C)C(=O)C2C(O)CCN2c2nc(C)cc(C(F)(F)F)c2C#N)c1 | 29.4

Query: // fetch viability, T/C given entry CNCc1ccc(-c2[nH]c3cc(F)cc4c3c2CCNC4=O)cc1 + Nc1ccc(C#CCN(C(=O)Cc2ncc(C(F)(F)F)cc2C(F)(F)F)c2ccc(F)cc2)nn1
Reply: 97.4

Query: // fetch viability, T/C given entry C#Cc1c(F)ccc2cc(O)cc(-c3ncc4c(N5CC6CCC(C5)N6)nc(OCC56CCCN5CC(F)C6)nc4c3F)c12 (configuration not stated) + COC1C(OC(N)=O)C(O)C(Oc2ccc3c(O)c(NC(=O)c4ccc(O)c(CC=C(C)C)c4)c(=O)oc3c2C)OC1(C)C
Reply: 96.9

Query: // fetch viability, T/C given entry C=CC(=O)N1CCN(c2nc(=O)n(-c3c(C)ccnc3C(C)C)c3nc(-c4c(O)cccc4F)c(F)cc23)C(C)C1 (configuration not stated) + Nc1ccc(C#CCN(C(=O)Cc2ncc(C(F)(F)F)cc2C(F)(F)F)c2ccc(F)cc2)nn1
Reply: 113
